# system: Coagulation factor X (Homo sapiens, UniProt P00742)
# Sequence (P00742 41-179 limits assumed): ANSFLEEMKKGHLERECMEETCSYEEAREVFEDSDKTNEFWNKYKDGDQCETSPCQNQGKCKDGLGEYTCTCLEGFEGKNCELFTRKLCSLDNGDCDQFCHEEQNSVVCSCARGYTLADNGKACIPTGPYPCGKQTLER
# Sequence (P00742 235-488 limits assumed): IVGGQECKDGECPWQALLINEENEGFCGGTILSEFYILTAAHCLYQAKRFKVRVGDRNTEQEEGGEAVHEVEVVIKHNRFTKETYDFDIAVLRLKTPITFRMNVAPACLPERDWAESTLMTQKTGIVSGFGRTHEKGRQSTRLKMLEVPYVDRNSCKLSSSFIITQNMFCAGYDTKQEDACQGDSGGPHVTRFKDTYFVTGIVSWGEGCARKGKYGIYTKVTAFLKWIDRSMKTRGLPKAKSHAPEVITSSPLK
Please respond with reported pKi for every item in the list.
The quantity pKi is defined as the negative base-10 logarithm of the molar concentration.

Q) Quick check: pKi of CC(C)c1ccc(CCNS(=O)(=O)c2cc(/C(N)=N/O)ccc2O)cc1 ?
A) 5.14

Q) What do we get for CC(C)c1ccc(CCNS(=O)(=O)c2cc(C(=N)N)ccc2Cl)cc1 ?
A) 5.52

Q) What do we get for CC(C)(C)c1ccc(CCNS(=O)(=O)c2cc(C(=N)N)ccc2O)cc1 ?
A) 7.57

Q) What do we get for COc1ccc(C(=N)N)cc1S(=O)(=O)NCCc1ccc(C(C)C)cc1 ?
A) 4.85

Q) What do we get for CC(C)c1ccc(CCNS(=O)(=O)c2cc(C(=N)N)ccc2O)c(NC(=O)C(=O)O)c1 ?
A) 8.01

Q) What do we get for CC(C)c1ccc(CCNS(=O)(=O)c2cc(C(=N)N)ccc2O)cc1 ?
A) 7.54

Q) What do we get for CC(C)c1ccc(CCN(CC(=O)O)S(=O)(=O)c2cc(C(=N)N)ccc2O)cc1 ?
A) 7.85

Q) What do we get for CCOC(=O)COc1cc(C(C)C)ccc1CCNS(=O)(=O)c1cc(C(=N)NO)ccc1O ?
A) 5.46

Q) What do we get for CC(C)c1ccc(CCNS(=O)(=O)c2cc(C(=N)N)ccc2O)c(NCC(=O)O)c1 ?
A) 7.21

* * *

# measurementNotes: Systemic clearance in rat
# Type: ADME, organism-based
# experimentalParameters: in vivo
readoutKind: clearance (mL/min)
Value expressed in mL/min; do not type the unit.

Q) Quick check: clearance of CC(C)c1ccc(CCN(CC(=O)O)S(=O)(=O)c2cc(C(=N)N)ccc2O)cc1 ?
A) 8.1

* * *

Ki values recorded for UniProtKB P00734

Q) Tell me reported Ki for CC(C)c1ccc(CCNS(=O)(=O)c2cccc(C(=N)N)c2)cc1 , tested with UniProtKB P00734.
A) > 10 µM

Q) What do we get for CC(C)c1ccc(CCNS(=O)(=O)c2cc(C(=N)N)ccc2O)cc1 ?
A) > 10 µM

* * *

Please respond with reported clearance for every item in the list.
# measurementNotes: Total clearance in iv dosed rat
# Format: ADME, organism-based
# experimentalParameters: in vivo
Value expressed in mL/min; do not type the unit.

Q) Quick check: clearance of CC(C)c1ccc(CCNS(=O)(=O)c2cc(C(=N)N)ccc2O)cc1 ?
A) 27

Q) What do we get for CC(C)c1ccc(CCNS(=O)(=O)c2cc(/C(N)=N/O)ccc2O)c(OCC(=O)O)c1 ?
A) 7.5

Q) What do we get for CC(C)c1ccc(CCNS(=O)(=O)c2cc(C(=N)N)ccc2O)c(OCC(=O)O)c1 ?
A) 1.7

Q) What do we get for CC(=N)N1CCC(c2ccc(NC(=O)CN(Cc3cccc(OCC(=O)O)c3)c3cccc(C(=N)N)c3)cc2)CC1 ?
A) 23

Q) What do we get for CC(C)c1ccc(CCNS(=O)(=O)c2cc(C(=N)N)ccc2O)c(NCC(=O)O)c1 ?
A) 3.2

Q) What do we get for CC(C)c1ccc(CCN(CC(=O)O)S(=O)(=O)c2cc(C(=N)N)ccc2O)cc1 ?
A) 8.1

Q) What do we get for CS(=O)(=O)c1ccccc1-c1ccc(CCNS(=O)(=O)c2cc(C(=N)N)ccc2O)c(NCC(=O)O)c1 ?
A) 25

Q) What do we get for CC(C)c1ccc(CCNS(=O)(=O)c2cc(C(=N)N)ccc2O)c(NC(=O)C(=O)O)c1 ?
A) 20

Q) What do we get for CC(C)c1ccc(CCN(CC(=O)O)S(=O)(=O)c2cc(/C(N)=N/O)ccc2O)cc1 ?
A) 13

Q) What do we get for CC(C)c1ccc(CCNS(=O)(=O)c2cc(/C(N)=N/O)ccc2O)cc1 ?
A) 27

Q) What do we get for CS(=O)(=O)c1ccccc1-c1ccc(CCNS(=O)(=O)c2cc(C(=N)N)ccc2O)c(OCC(=O)O)c1 ?
A) 7.5

* * *

# measurementNotes: Oral bioavailability in mouse
# Assay type: ADME, organism-based
# experimentalParameters: in vivo
readoutKind: bioavailability (%)
Value expressed in %; do not type the unit.

Q) Quick check: bioavailability of CCCCOC(=O)COc1cc(-c2ccccc2S(C)(=O)=O)ccc1CCNS(=O)(=O)c1cc(C(=N)NO)ccc1O.Cl ?
A) 15

* * *

# measurementNotes: Oral bioavailability in rat
# Type: ADME, organism-based
# experimentalParameters: in vivo
readoutKind: bioavailability (%)
Value expressed in %; do not type the unit.

Q) Quick check: bioavailability of CC(C)c1ccc(CCNS(=O)(=O)c2cc(/C(N)=N/O)ccc2O)cc1 ?
A) 6.6

Q) What do we get for CCOC(=O)COc1cc(C(C)C)ccc1CCNS(=O)(=O)c1cc(C(=N)NO)ccc1O ?
A) 13

Q) What do we get for CC(C)c1ccc(CCNS(=O)(=O)c2cc(/C(N)=N/O)ccc2O)c(OCC(=O)O)c1 ?
A) 9.2

Q) What do we get for CC(=N)N1CCC(c2ccc(NC(=O)CN(Cc3cccc(OCC(=O)O)c3)c3cccc(C(=N)N)c3)cc2)CC1 ?
A) 0.9

Q) What do we get for CC(C)c1ccc(CCNS(=O)(=O)c2cc(C(=N)N)ccc2O)cc1 ?
A) 3.7

* * *

# measurementNotes: Oral bioavailability in cynomolgus monkey
# Assay type: ADME, organism-based, Macaca fascicularis
# experimentalParameters: in vivo
readoutKind: bioavailability (%)
Value expressed in %; do not type the unit.

Q) Quick check: bioavailability of CCCCOC(=O)COc1cc(-c2ccccc2S(C)(=O)=O)ccc1CCNS(=O)(=O)c1cc(C(=N)NO)ccc1O.Cl ?
A) 11

* * *

# measurementNotes: Oral bioavailability in mouse at 30 mg/kg
# Format: ADME, organism-based
# experimentalParameters: in vivo
readoutKind: bioavailability (%)
Value expressed in %; do not type the unit.

Q) Quick check: bioavailability of CC(C)c1ccc(CCNS(=O)(=O)c2cc(C(=N)N)ccc2O)c(OCC(=O)O)c1 ?
A) 38

Where do the numbers come from? From ChEMBL document CHEMBL1156579.
